Listed here are molecules together with their documented inhibition at 128 µM.
- Tested on: Mycobacterium tuberculosis
- test_details: Antimycobacterial activity against Mycobacterium tuberculosis H37Ra ATCC 25177 assessed as inhibition of bacterial growth at 128 uM measured after 7 days by luminescence based analysis relative to control
- Assay type: functional
- protocol_conditions: H37Ra ATCC 25177, 168 h, time 7 day
Dear colleague, please send the value followed by its unit.

INPUT: Write down the reported inhibition at 128 µM of "COC(=O)[C@@H](NC(=O)c1cccc(/C=C2\SC(=O)N(CC(=O)NOCc3ccccc3)C2=O)c1)C(C)C" , test system: Mycobacterium tuberculosis.
OUTPUT: 6.3%

INPUT: How about this molecule: "CC(C)C[C@H](NC(=O)[C@H](C)NC(=O)c1cn(CC(=O)NOCc2ccccc2)c2ccccc12)C(=O)O"
OUTPUT: 13.6%

INPUT: How about this molecule: "COC(=O)[C@H](CC(C)C)NC(=O)c1cccc(/C=C2\SC(=O)N(CC(=O)NOCc3ccccc3)C2=O)c1"
OUTPUT: 4.2%

INPUT: How about this molecule: "CC(C)C[C@H](NC(=O)[C@H](C)NC(=O)c1ccn(CC(=O)NOCc2ccccc2)c1)C(=O)O"
OUTPUT: 3.2%

INPUT: How about this molecule: "C=CCONC(=O)CN1C(=O)S/C(=C\c2ccc(C(=O)N[C@@H](CC(C)C)C(=O)OC)cc2)C1=O"
OUTPUT: 4.4%

INPUT: How about this molecule: "CC(C)[C@H](NC(=O)[C@H](C)NC(=O)c1ccn(CC(=O)NOCc2ccccc2)c1)C(=O)O"
OUTPUT: 6.9%

###

- Tested on: Mycobacterium tuberculosis
- test_details: Inhibition of Mycobacterium tuberculosis Zmp1 at 8 to 40 uM by MALDI-TOF-MS analysis
- protocol_conditions: dose 8-40 µM
Kindly note that classification relies on inhibition with these boundaries: class 0: < 20%; class 1: ≥ 20% and < 50%; class 2: ≥ 50%

Answered examples (5):
INPUT: Hello team, could you let me know which band the following compound falls into: "COC(=O)[C@H](CC(C)C)NC(=O)c1cccc(/C=C2\SC(=O)N(CC(=O)NOCc3ccccc3)C2=O)c1"
OUTPUT: class 0

INPUT: How about this compound: "C=CCONC(=O)CN1C(=O)S/C(=C\c2cccc(C(=O)N[C@@H](CC(C)C)C(=O)OC)c2)C1=O"
OUTPUT: class 1

INPUT: How about this compound: "C=CCONC(=O)CN1C(=O)S/C(=C\c2ccc(C(=O)N[C@@H](CC(C)C)C(=O)OC)cc2)C1=O"
OUTPUT: class 0

INPUT: How about this compound: "COC(=O)[C@@H](NC(=O)c1ccc(/C=C2\SC(=O)N(CC(=O)NOCc3ccccc3)C2=O)cc1)C(C)C"
OUTPUT: class 1

INPUT: How about this compound: "C=CCONC(=O)Cn1ccc(C(=O)NCC(=O)N[C@H](C(=O)O)C(C)C)c1"
OUTPUT: class 0

Others:
INPUT: Hello team, could you let me know which band the following compound falls into: "C=CCONC(=O)CN1C(=O)S/C(=C\c2ccc(C(=O)N[C@H](C(=O)OC)C(C)C)cc2)C1=O"
OUTPUT: class 1

INPUT: How about this compound: "C=CCONC(=O)Cn1cc(C(=O)NCC(=O)N[C@@H](CC(C)C)C(=O)O)c2ccccc21"
OUTPUT: class 1

###

- Tested on: Mycobacterium tuberculosis
- test_details: Antimycobacterial activity against Mycobacterium tuberculosis H37Ra ATCC 25177 assessed as inhibition of bacterial growth at 128 uM measured after 7 days by luminescence based analysis relative to control
- Assay type: functional
- protocol_conditions: H37Ra ATCC 25177, 168 h, time 7 day
measured_attribute: inhibition at 128 µM (%)
Field: numeric (%). Do not append units.

INPUT: inhibition at 128 µM for "COC(=O)[C@H](CC(C)C)NC(=O)c1ccc(/C=C2\SC(=O)N(CC(=O)NOCc3ccccc3)C2=O)cc1" ?
OUTPUT: 2

INPUT: How about this compound: "C=CCONC(=O)CN1C(=O)S/C(=C\c2ccc(C(=O)N[C@H](C(=O)OC)C(C)C)cc2)C1=O"
OUTPUT: 8.2

INPUT: How about this compound: "CC(C)[C@H](NC(=O)CNC(=O)c1ccn(CC(=O)NOCc2ccccc2)c1)C(=O)O"
OUTPUT: 5.9

INPUT: How about this compound: "C=CCONC(=O)Cn1ccc(C(=O)N[C@@H](C)C(=O)N[C@H](C(=O)O)C(C)C)c1"
OUTPUT: 12.8

###

Listed here are compounds together with their documented inhibition at 128 µM.
- System: Mycobacterium tuberculosis
- test_details: Antimycobacterial activity against Mycobacterium tuberculosis H37Ra ATCC 25177 assessed as inhibition of bacterial growth at 128 uM measured after 7 days by luminescence based analysis relative to control
- Format: functional
- protocol_conditions: H37Ra ATCC 25177, 168 h, time 7 day
Field: numeric (%). Do not append units.

INPUT: inhibition at 128 µM for "C=CCONC(=O)Cn1cc(C(=O)NCC(=O)N[C@H](C(=O)O)C(C)C)c2ccccc21" ?
OUTPUT: 10.3

INPUT: How about this compound: "C=CCONC(=O)CN1C(=O)S/C(=C\c2cccc(C(=O)N[C@H](C(=O)OC)C(C)C)c2)C1=O"
OUTPUT: 3.4

INPUT: How about this compound: "CC(C)[C@H](NC(=O)[C@H](C)NC(=O)c1cn(CC(=O)NOCc2ccccc2)c2ccccc12)C(=O)O"
OUTPUT: 23.6

###

- Tested on: Mycobacterium tuberculosis
- test_details: Inhibition of Mycobacterium tuberculosis Zmp1 at 8 to 40 uM by MALDI-TOF-MS analysis
- protocol_conditions: dose 8-40 µM
Use 60% as the dividing line for inhibition, with the line itself on the True side and lower values as False.

Answered examples (5):
INPUT: Does inhibition meet or surpass 60% for "C=CCONC(=O)Cn1cc(C(=O)NCC(=O)N[C@H](C(=O)O)C(C)C)c2ccccc21" ?
OUTPUT: False

INPUT: How about this compound: "C=CCONC(=O)Cn1ccc(C(=O)NCC(=O)N[C@@H](CC(C)C)C(=O)O)c1"
OUTPUT: False

INPUT: How about this compound: "CC(C)C[C@H](NC(=O)CNC(=O)c1cn(CC(=O)NOCc2ccccc2)c2ccccc12)C(=O)O"
OUTPUT: False

INPUT: How about this compound: "CC(C)C[C@H](NC(=O)[C@H](C)NC(=O)c1ccn(CC(=O)NOCc2ccccc2)c1)C(=O)O"
OUTPUT: True

INPUT: How about this compound: "COC(=O)[C@H](CC(C)C)NC(=O)c1ccc(/C=C2\SC(=O)N(CC(=O)NOCc3ccccc3)C2=O)cc1"
OUTPUT: False

Shifting focus to the compound that follows.
INPUT: Does inhibition meet or surpass 60% for "CC(C)[C@H](NC(=O)[C@H](C)NC(=O)c1ccn(CC(=O)NOCc2ccccc2)c1)C(=O)O" ?
OUTPUT: False
